# ASSAY DETAILS: chemical genetic growth profiling, strain panel (AID 1159580);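 also: tested at 20 µM; growth read once vehicle control cultures reached saturation at 30 °C; 1 = growth at the plate median or of vehicle wells; lower values mean less growth of the strain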
# EXPERIMENTAL CONDITIONS: S. cerevisiae deletion strains, growth OD, locus YER111C, strain swi4, active compounds read low
The campaign covered roughly 5,500 compounds. About 2,000 (36%) were called active. Roughly 18% stayed inconclusive and do not appear here. Some of the results follow.
OBSERVATION TYPE: normalized growth
Reply briefly: the number, and no unit.

Example cases with answers are listed next.
{"columns": ["COMPOUND", "normalized growth"],
 "data": [
  ["COS(C)(=O)=O", 0.998],
  ["CCn1cc(C(=O)O)c(=O)c2cnc(N3CCCC3)nc21", 1.02],
  ["CC[C@]12CCCN3CCc4c(n(c5ccccc45)[C@](O)(C(=O)OC)C1)[C@@H]32", 0.978],
  ["CC1=C(/C=C/C(C)=C/C=C/C(C)=C/C=C/C=C(C)/C=C/C=C(C)/C=C/C2=C(C)CCCC2(C)C)C(C)(C)CCC1", 0.983],
  ["CC[C@]12CCCN3CCc4c(n(c5ccccc45)C(=O)C1)[C@@H]32", 0.998]
]}

Enquiry: Param item = CCN(CC)CCOC(=O)C(Cc1cccc2ccccc12)CC1CCCO1 (stereo unspecified) ; retrieve measured normalized growth.
Return: 1.01

Enquiry: Param item = "CCn1cc(C(=O)O)c(=O)c2cnc(N3CCNCC3)nc21" ; retrieve measured normalized growth.
Return: 1.02

Enquiry: Param item = "CS(=O)(=O)OCCCCOS(C)(=O)=O" ; retrieve measured normalized growth.
Return: 1.02

Enquiry: Param item = Cc1cccc(CN2CCN(C(c3ccccc3)c3ccc(Cl)cc3)CC2)c1 (stereo unspecified) ; retrieve measured normalized growth.
Return: 0.96

Enquiry: Param item = "CCn1cc(C(=O)O)c(=O)c2cc3c(cc21)OCO3" ; retrieve measured normalized growth.
Return: 0.972

Enquiry: Param item = "CCOC(=O)C1=C[C@]2(CC)CCCN3CCc4c(n1c1ccccc41)[C@@H]32" ; retrieve measured normalized growth.
Return: 1.02

###

# ASSAY DETAILS: chemical genetic growth profiling, strain panel (AID 1159580)
# EXPERIMENTAL CONDITIONS: S. cerevisiae deletion strains, growth OD, locus YGR052W, strain FMP48, active compounds read low
Among all 5,500 compounds or so, about 2,000 (36%) were called active. Roughly 18% stayed inconclusive and do not appear here. The list shows a part of the results.
# normalized growth listing for each entry below
Reply briefly: the number, and no unit.

{"columns": ["MOLECULAR STRING", "RESULT NUMBER"],
 "data": [
  ["CC1(C)C/C(=N/Nc2ccc(C(F)(F)F)cc2)c2cc(C(C)(C)C)c(O)c(O)c2O1", 0.347]
]}

Enquiry: Param item = "Cc1onc(-c2ccccc2Cl)c1-c1nc2ccccc2c(=O)o1" ; retrieve measured normalized growth.
Return: 1.03

Enquiry: Param item = "COc1cc(C(=O)Oc2c(Cl)cc(Cl)cc2C=Nc2cccc([N+](=O)[O-])c2)cc(OC)c1OC" ; retrieve measured normalized growth.
Return: 0.561

Enquiry: Param item = "CC(=O)C(Sc1nc2ccccc2s1)C(C)=O" ; retrieve measured normalized growth.
Return: 0.667

Enquiry: Param item = "N=C(N)SCc1nc(-c2ccc(Cl)cc2)no1" ; retrieve measured normalized growth.
Return: 1.03

Enquiry: Param item = "C/C(=N/OC(=O)Nc1ccc(Cl)cc1)c1ccc2c(c1)CCO2" ; retrieve measured normalized growth.
Return: 0.908

###

# ASSAY DETAILS: chemical genetic growth profiling, strain panel (AID 1159580)
# EXPERIMENTAL CONDITIONS: S. cerevisiae deletion strains, growth OD, locus YKL085W, strain MDH1, active compounds read low
Out of some 5,500 compounds screened, about 2,000 (36%) were called active. Not shown: some 18% with an inconclusive outcome. The list shows a part of the results.
# normalized growth listing for each entry below
Reply briefly: the number, and no unit.

Example cases with answers are listed next.
{"columns": ["COMPOUND", "RESULT NUMBER"],
 "data": [
  ["COc1cc(C(=O)O)cc(OC)c1O", 0.983],
  ["C#C[C@]1(O)CCC2C3CCc4cc(O)ccc4C3CC[C@@]21C (stereo partly specified)", 1.01],
  ["CCN(CC)CCOC(=O)C(Cc1cccc2ccccc12)CC1CCCO1 (stereo unspecified)", 1],
  ["CCCSP(=O)(OCC)SCCC", 0.99]
]}

Enquiry: Param item = CN1CCc2cccc3c2C1Cc1ccc(O)c(O)c1-3 (stereo unspecified) ; retrieve measured normalized growth.
Return: 1

Enquiry: Param item = "COc1ccc2c(c1O)-c1c(OC)c(OC)cc3c1[C@H](C2)N(C)CC3" ; retrieve measured normalized growth.
Return: 1.01

###

# ASSAY DETAILS: chemical genetic growth profiling, strain panel (AID 1159580);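 also: tested at 20 µM; growth read once vehicle control cultures reached saturation at 30 °C; 1 = growth at the plate median or of vehicle wells; lower values mean less growth of the strain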
# EXPERIMENTAL CONDITIONS: S. cerevisiae deletion strains, growth OD, locus YML032C, strain rad52, active compounds read low
The campaign covered roughly 5,500 compounds. About 2,000 (36%) were called active. Not shown: some 18% with an inconclusive outcome. Some of the results follow.
OBSERVATION TYPE: normalized growth
Reply briefly: the number, and no unit.

Enquiry: Param item = "COP(=S)(OC)Oc1ccc(SC)c(C)c1" ; retrieve measured normalized growth.
Return: 0.979

Enquiry: Param item = "COc1ccccc1N1CCNCC1" ; retrieve measured normalized growth.
Return: 1.03

Enquiry: Param item = COc1cc2c(cc1O)CC1c3c(cc(O)c(OC)c3-2)CCN1C (stereo not drawn) ; retrieve measured normalized growth.
Return: 1

Enquiry: Param item = "C=CC1=C(C)/C(=C/c2[nH]c(Cc3[nH]c(/C=C4\NC(=O)C(C)=C4C=C)c(C)c3CCC(=O)O)c(CCC(=O)O)c2C)NC1=O" ; retrieve measured normalized growth.
Return: 1.03

Enquiry: Param item = "COc1ccc2c(c1O)-c1c(OC)c(OC)cc3c1[C@H](C2)N(C)CC3" ; retrieve measured normalized growth.
Return: 1.02

Enquiry: Param item = "COc1cc(C(=O)O)c(O)c2c1OCO2" ; retrieve measured normalized growth.
Return: 1.02

Enquiry: Param item = CC(=O)O[C@H]1C[C@@H](OC(C)=O)C(C)(C)C2C[C@@H](OC(C)=O)[C@]3(C)C(CC[C@@]4(C)[C@H](c5ccoc5)C(=O)[C@H]5O[C@]543)[C@]21C (stereo partly drawn) ; retrieve measured normalized growth.
Return: 0.995

Enquiry: Param item = CC[C@@]1(C2O[C@@H](C3O[C@@](O)(CC)[C@H](C)C[C@@H]3C)C[C@@H]2C)CC[C@H]([C@]2(C)CCC3(C[C@H](O)[C@@H](C)[C@@H]([C@H](C)[C@@H](OC)[C@H](C)C(=O)O)O3)O2)O1 (stereo partly drawn) ; retrieve measured normalized growth.
Return: 1.01

###

# ASSAY DETAILS: chemical genetic growth profiling, strain panel (AID 1159580);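 also: tested at 20 µM; growth read once vehicle control cultures reached saturation at 30 °C; 1 = growth at the plate median or of vehicle wells; lower values mean less growth of the strain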
# EXPERIMENTAL CONDITIONS: S. cerevisiae deletion strains, growth OD, locus YCL061C, strain MRC1, active compounds read low
The campaign covered roughly 5,500 compounds. About 2,000 (36%) were called active. About 18% were inconclusive and are not listed. The list shows a part of the results.
OBSERVATION TYPE: normalized growth
Reply briefly: the number, and no unit.

{"columns": ["COMPOUND", "OBSERVATION TYPE", "RESULT NUMBER"],
 "data": [
  ["Cc1ccc(CSC(=N)N)cc1", "normalized growth", 1.01],
  ["C[C@](N)(Cc1ccc(O)c(O)c1)C(=O)O", "normalized growth", 0.966],
  ["O=C1CNC(=S)N1CCc1ccccn1", "normalized growth", 0.99],
  ["C[C@](N)(Cc1ccc(O)cc1)C(=O)O", "normalized growth", 1],
  ["O=C(O)c1cc(=O)c(O)c2c(O)c(O)ccc2c1", "normalized growth", 0.993]
]}

Enquiry: Param item = "ON(Cc1c(F)cccc1Cl)Cc1c(F)cccc1Cl" ; retrieve measured normalized growth.
Return: 0.997

Enquiry: Param item = CCOC(=O)C(C)(N)Cc1ccc(O)c(O)c1 (centres undefined) ; retrieve measured normalized growth.
Return: 0.965

Enquiry: Param item = "O=C(O)c1ccc2c(c1)OCO2" ; retrieve measured normalized growth.
Return: 0.984

Enquiry: Param item = "O=C1c2cccc3c(SCCO)ccc(c23)C(=O)N1CCc1ccccn1" ; retrieve measured normalized growth.
Return: 1

Enquiry: Param item = CCCNC(C)C(=O)Nc1ccccc1C (centres undefined) ; retrieve measured normalized growth.
Return: 0.997

###

# ASSAY DETAILS: chemical genetic growth profiling, strain panel (AID 1159580);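 also: tested at 20 µM; growth read once vehicle control cultures reached saturation at 30 °C; 1 = growth at the plate median or of vehicle wells; lower values mean less growth of the strain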
# EXPERIMENTAL CONDITIONS: S. cerevisiae deletion strains, growth OD, locus YPR167C, strain met16
About 2,000 (36%) of roughly 5,500 compounds were called active. Not shown: some 18% with an inconclusive outcome. No stated cut-off is given here; in the data, active means normalized growth mostly below about 0.91 (no sharp cut-off); inconclusive means no clear call, values can overlap the other calls; inactive means mostly above about 0.92. The list shows a part of the results.
Response enum: label 1 for active, label 0 for inactive

For orientation, consider the following solved cases.
{"columns": ["COMPOUND", "CLASS ASSIGNMENT"],
 "data": [
  ["COc1c(C(=O)O)ccc2c1CCC(C)(C)O2", "label 0"],
  ["CCOP(=S)(OCC)Oc1ccc2c(C)c(Cl)c(=O)oc2c1", "label 0"],
  ["O=C(O)CCC(=O)c1ccc(-c2ccccc2)cc1", "label 0"],
  ["C[C@@H]1CC2C3CCC4=CC(=O)C=C[C@]4(C)[C@@]3(F)[C@@H](O)C[C@]2(C)[C@@]1(O)C(=O)COP(=O)(O)O (stereo not given in full)", "label 0"],
  ["OCC(S)CS (stereo not given)", "label 0"]
]}

Enquiry: Hi, do you know how "O=c1cccc2n1C[C@H]1CNCC2C1" came out in this test?
Return: label 0

Enquiry: Hi, do you know how CCCN(CCC)C(=O)C(CCC(=O)O)NC(=O)c1ccccc1 (stereo not given) came out in this test?
Return: label 0

Enquiry: Hi, do you know how CO[C@@H]1C[C@@H](C[C@H]2CC[C@H](C)[C@H]([C@@H](C)C(=O)O)O2)O[C@]2(O[C@](C)([C@H]3CC[C@@](C)(C4O[C@@H](C5O[C@@](O)(CO)[C@H](C)C[C@@H]5C)C[C@@H]4C)O3)C[C@H]2C)[C@@H]1C (stereo not given in full) came out in this test?
Return: label 0

Enquiry: Hi, do you know how CCCCC(CC)CN=C(N)NC(N)=NCCCCCCN=C(N)NC(N)=NCC(CC)CCCC (stereo not given) came out in this test?
Return: label 1

Enquiry: Hi, do you know how "COP(=S)(OC)Oc1ccc(SC)c(C)c1" came out in this test?
Return: label 0

From: PubChem BioAssay AID1159580
